Data origin: patent US6946558B2

# Assay System: cyclooxygenase-2 (Mus musculus, UniProt Q05769)
# Construct: endogenous in cells; host or cells: Raw 264.7 (Korean cell line bank), induced with interferon γ and LPS
# Sequence (Q05769 18-604): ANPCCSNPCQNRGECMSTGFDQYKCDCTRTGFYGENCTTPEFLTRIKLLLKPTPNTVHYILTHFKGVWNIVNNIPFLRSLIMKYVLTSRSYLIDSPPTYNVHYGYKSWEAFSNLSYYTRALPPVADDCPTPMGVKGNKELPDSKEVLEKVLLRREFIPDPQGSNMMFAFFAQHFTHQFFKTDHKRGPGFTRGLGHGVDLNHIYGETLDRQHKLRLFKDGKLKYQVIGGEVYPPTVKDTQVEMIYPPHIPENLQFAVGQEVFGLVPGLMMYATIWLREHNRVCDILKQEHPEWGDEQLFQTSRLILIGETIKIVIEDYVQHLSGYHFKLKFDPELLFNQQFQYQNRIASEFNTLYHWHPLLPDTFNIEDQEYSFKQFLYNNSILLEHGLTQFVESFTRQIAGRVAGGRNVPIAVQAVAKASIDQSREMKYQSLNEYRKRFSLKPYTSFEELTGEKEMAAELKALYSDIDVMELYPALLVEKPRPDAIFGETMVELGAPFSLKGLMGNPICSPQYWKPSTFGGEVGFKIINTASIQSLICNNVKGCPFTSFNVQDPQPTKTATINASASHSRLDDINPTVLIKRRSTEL
# Protocol Text: Cyclooxygenase-2 inhibition in Raw 264.7 cells (interferon γ/LPS induced, PGE2 EIA)
# Format: cell-based
# Recorded Conditions: 30 nM, Raw 264.7 cells
Assay Endpoint: Inhibitory effects of cyclooxygenase (COX): COX-2 (Raw 264.7) (% inhibition)
Provide the reading as a plain figure in % inhibition.

Example entries begin here.
C[C@@H](CO)COc1cccnc1-c1ccc(S(C)(=O)=O)nc1 = 9.3
CS(=O)(=O)c1ccc(-c2ncccc2OC2CCCCC2)cn1 = 23.5
C[C@H](CO)COc1cccnc1-c1ccc(S(C)(=O)=O)nc1 = 10.3

Name the recorded Inhibitory effects of cyclooxygenase (COX): COX-2 (Raw 264.7) of the molecule listed here: CS(=O)(=O)c1ccc(-c2ncccc2OC2CCCC2)cn1 40.3

Name the recorded Inhibitory effects of cyclooxygenase (COX): COX-2 (Raw 264.7) of the molecule listed here: CC(C)=CCOc1cccnc1-c1ccc(S(C)(=O)=O)nc1 15.8

Name the recorded Inhibitory effects of cyclooxygenase (COX): COX-2 (Raw 264.7) of the molecule listed here: CC(C)Oc1cccnc1-c1ccc(S(C)(=O)=O)nc1 10.2
